The measured values listed here are drawn from patent US20060234909A1.

Tested on: HT-29 colorectal carcinoma
Assay: Cytotoxicity assay (monolayer), HT-29;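 further: monolayer cultures tested in triplicate, compound exposure for three days against DMSO vehicle controls, EC50 fitted from dose-response curves and averaged across all tests and lots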
Assay type: cell-based
Details: HT29, ML (monolayer); read-out: HT29 (EC50 Ave) ML
pEC50: −log10 of the molar value. Primed or numbered codes have the meaning given here. * marks the point of attachment. ALK(6) = not defined here; 10Es = not defined here; PEG(11)″ = PEG11 linker; 3Am = not defined here; Cbz = O=C(OCc1ccccc1)*; Boc = CC(C)(C)OC(=O)*; VBL = vinblastine; PXL = paclitaxel
readout-label: pEC50

Result for Ac-YIYGSFR-PEG(11)-3Am-VBL (N-acetyl; PEG(11) linker; vinblastine conjugate) , tested on HT-29 colorectal carcinoma, pEC50: 7.00 to 7.70

Record for CBz-YIYGSFK(CBz)-ALK(6)-10Es-PXL (Cbz-YIYGSFK(Cbz)-{ALK(6)-10Es-PXL}; reading uncertain; also: printed as CBz-YIYGSFK(CBz)-ALK(6)-10Es-PXL) under target or system HT-29 colorectal carcinoma: pEC50 reported as < 7.00

# lookup: BOC-YIYGSFR-PEG(11)-3Am-VBL (N-BOC; PEG(11) linker; vinblastine conjugate) on HT-29 colorectal carcinoma, pEC50 = < 7.00

So the reported pEC50 for CBz-RPRTSSF-PEG(13)-10Ca-PXL (N-CBz; PEG(13) linker; paclitaxel conjugate) , on HT-29 colorectal carcinoma, turned out to be 7.00 to 7.70

For the substance Ac-YIFGSFK(BOC)-PEG(11)-3Am-VBL (Ac-YIFGSFK(Boc)-{PEG(11)″-3Am-VBL}; reading uncertain; also: printed as Ac-YIFGSFK(BOC)-PEG(11)-3Am-VBL) , the measured pEC50 on HT-29 colorectal carcinoma was < 7.00

Form field pEC50 for item Ac-GRPRTSSFAEG-3Am-VBL (Ac-GRPRTSSFAEG-{3Am-VBL}; reading uncertain; also: TFA salt, printed as Ac-GRPRTSSFAEG-3Am-VBL) on HT-29 colorectal carcinoma: 7.00 to 7.70

Param item: Ac-YIFGSFK-PEG(11)-3Am-VBL (N-acetyl; PEG(11) linker; vinblastine conjugate) ; param system: HT-29 colorectal carcinoma; output pEC50: < 7.00

Item: Ac-YIYGSFH-PEG(11)-3Am-VBL (N-acetyl; PEG(11) linker; vinblastine conjugate) | System: HT-29 colorectal carcinoma | pEC50: < 7.00

# value of pEC50, HT-29 colorectal carcinoma, item CBz-RPRTSSF-PEG(11)-3Am-VBL (N-CBz; PEG(11) linker; vinblastine conjugate) = > 7.70

Observed pEC50, HT-29 colorectal carcinoma, Ac-YIYGSFK-PEG(13)-10Ca-PXL (N-acetyl; PEG(13) linker; paclitaxel conjugate) : < 7.00
